Where do these numbers come from? They come from PubChem BioAssay (NCI).

# System: OVCAR-5 ovarian
# run-description: NCI-60 one-dose screen, 48 h (100 = growth as untreated, 0 = no growth, -100 = all killed)
# conditions: 10 µM unless noted
Compounds without any hit were thinned out: in the full panel of roughly 83,000, 20% have a hit.
assay-metric: growth (%)
Your answer is read as %, so omit the unit and give the number.

molecule="CCCCCCCCCCCCCCCCCC1OCC(COC(=O)O[C@]2(CC)C(=O)OCc3c2cc2n(c3=O)Cc3cc4ccccc4nc3-2)O1 (some centres undefined)" assay_metric=growth result_unit=% reported_measurement=95.6
molecule=COc1ccn2c(C(C)=O)cc(C(=O)c3ccc4c(c3)Sc3ccccc3N4)c2c1 assay_metric=growth result_unit=% reported_measurement=36.9
molecule=Cc1cc2nc3cc(C)c(N)cc3[n+](-c3ccccc3)c2cc1N assay_metric=growth result_unit=% reported_measurement=103

IN: Determine from records and report growth for `N#C/C(=C\c1cccc2cnccc12)n1nnc2cccc(F)c21`
OUT: 31.8

IN: Determine from records and report growth for `N#Cc1c(-c2ccccc2)nc(SCC(=O)Nc2nc(-c3ccc(Cl)cc3)cs2)[nH]c1=O`
OUT: 90.7

IN: Determine from records and report growth for `c1cc(NCCc2ccncc2)nc(-n2cnc3ccccc32)c1`
OUT: 98

IN: Determine from records and report growth for `c1ccc(OCc2nnc(-c3ccc(Oc4ccccc4)cc3)o2)cc1`
OUT: 104

IN: Determine from records and report growth for `CCCCNC(=O)Oc1ccc(/C(=C(\C)c2ccc(Cl)cc2)c2ccc(OCCN3CCCCC3)cc2)cc1`
OUT: 71.8

IN: Determine from records and report growth for `C/C(=C(/c1ccccc1)c1ccc(N2C(=O)c3cccc4c(N5CCN(C)CC5)ccc(c34)C2=O)cc1)c1ccccc1`
OUT: 91.9
